Value source: patent EP4715056A1

- protocol: Water content (Karl Fischer moisture meter)
- Type: physicochemical
- testParameters: aconitate/citrate products, Table 4
# Water content per entry
# value in %; strip the unit string

As a guide, the following entries are already answered.
compound: CCCCOC(=O)C=C(CC(=O)OCCCC)C(=O)OCCCC [Example 24, tributyl aconitate]
Water content / %: 0.02
//
compound: CCCCOC(=O)C=C(CC(=O)OCCCC)C(=O)OCCCC [Example 31, tributyl aconitate]
Water content / %: 0.03

From here, focus on the item given below.
I am curious: what Water content value has been reported for CCCCOC(=O)C=C(CC(=O)OCCCC)C(=O)OCCCC [Example 28, tributyl aconitate] ?
0.04

###

- protocol: Petroleum ether extraction rate (ISO 175-2011)
- Format: physicochemical
- testParameters: PVC composite with 30 parts plasticizer, room temperature, 72 h
- Protocol: The above plasticizer is the mixed aconitates prepared in Example 37, and composite materials are prepared according to the above weight ratio and preparation method respectively. At the same time, dioctyl phthalate, tributyl citrate, tributyl aconitate and triisooctyl aconitate are respectively selected as plasticizers to prepare composite materials according to the above weight ratio and preparation method. The test method is the same as that in Test 2 except for the following: • 1. […]
Structures can show the parent of a compound that is named as a salt.
# Petroleum ether extraction rate per entry
# value in %; strip the unit string

As a guide, the following entries are already answered.
compound: CC(C)CCCCCOC(=O)C=C(CC(=O)OCCCCCC(C)C)C(=O)OCCCCCC(C)C [Triisooctyl aconitate, triisooctyl aconitate]
Petroleum ether extraction rate / %: 16.44

compound: CCCCOC(=O)CC(O)(CC(=O)OCCCC)C(=O)OCCCC [Tributyl citrate, tributyl citrate]
Petroleum ether extraction rate / %: 8.91

compound: CCCCCCCCOC(=O)c1ccccc1C(=O)OCCCCCCCC [Dioctyl Phthalate, dioctyl phthalate]
Petroleum ether extraction rate / %: 6.12

I am curious: what Petroleum ether extraction rate value has been reported for CCCCOC(=O)C=C(CC(=O)OCCCC)C(=O)OCCCC [Tributyl aconitate, tributyl aconitate] ?
6.03

###

- protocol: Tensile properties (GB/T 1040-2006): tensile modulus at 100%, elongation at break, elastic modulus
- Type: physicochemical
- testParameters: PVC plastic with 35 parts plasticizer; 50 mm/min, 25°C
Structures can show the parent of a compound that is named as a salt.
resultType: Elongation at break (%)
# value in %; strip the unit string

I am curious: what Elongation at break value has been reported for CCCCOC(=O)C=C(CC(=O)OCCCC)C(=O)OCCCC [Comparative Example 3, tributyl aconitate, reference compound] ?
233.6

I am curious: what Elongation at break value has been reported for CCCCOC(=O)CC(O)(CC(=O)OCCCC)C(=O)OCCCC [Comparative Example 5, tributyl citrate, reference compound] ?
213.4

###

- protocol: Tensile properties (GB/T 1040-2006): tensile modulus at 100%, elongation at break, elastic modulus
- Assay type: physicochemical
- testParameters: PVC composite with 30 parts plasticizer, Table 9
Counter-ions that a name gives are not always drawn.
resultType: Elongation at break (%)
# value in %; strip the unit string

As a guide, the following entries are already answered.
compound: CC(C)CCCCCOC(=O)C=C(CC(=O)OCCCCCC(C)C)C(=O)OCCCCCC(C)C [Triisooctyl aconitate, triisooctyl aconitate]
Elongation at break (%): 156.3

compound: CCCCOC(=O)CC(O)(CC(=O)OCCCC)C(=O)OCCCC [Tributyl citrate, tributyl citrate]
Elongation at break (%): 146.3

compound: CCCCCCCCOC(=O)c1ccccc1C(=O)OCCCCCCCC [Dioctyl Phthalate, dioctyl phthalate]
Elongation at break (%): 134.9

From here, focus on the item given below.
I am curious: what Elongation at break value has been reported for CCCCOC(=O)C=C(CC(=O)OCCCC)C(=O)OCCCC [Tributyl aconitate, tributyl aconitate] ?
257.4
